- Condition context: human, Liver;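 further: human clinical data: severe hepatitis, meaning potentially life-threatening liver failure or clinically observed cases, the value counts how many indexed literature references report it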
The following compounds are listed with their measured Hepatotoxicity (severe hepatitis) values.
Property name: Hepatotoxicity (severe hepatitis)

{"Compound": "Nc1ccc(S(=O)(=O)Nc2nccs2)cc1 [SULFATHIAZOLE]", "Result": 0}
{"Compound": "OC(Cn1cncn1)(Cn1cncn1)c1ccc(F)cc1F [FLUCONAZOLE]", "Result": 7}
{"Compound": "CN[C@H]1CC[C@@H](c2ccc(Cl)c(Cl)c2)c2ccccc21 [SERTRALINE]", "Result": 1}
{"Compound": "CN(C)CCC(c1ccc(Cl)cc1)c1ccccn1.O=C(O)/C=C\\C(=O)O (stereo not given) [CHLORPHENIRAMINE MALEATE]", "Result": 0}
{"Compound": "Clc1ccc2nsnc2c1NC1=NCCN1 [TIZANIDINE]", "Result": 2}
{"Compound": "CN(C)CC[C@@H](c1ccc(Cl)cc1)c1ccccn1 [DEXCHLORPHENIRAMINE]", "Result": 0}
{"Compound": "OC(CCN1CCCCC1)(c1ccccc1)C1CCCCC1 (stereo not given) [TRIHEXYPHENIDYL]", "Result": 1}
{"Compound": "Nc1c2c(nc3ccccc13)CCCC2 [TACRINE]", "Result": 2}
{"Compound": "C1CNCCN1 [PIPERAZINE]", "Result": 0}
{"Compound": "NC(=O)N1c2ccccc2C=Cc2ccccc21 [CARBAMAZEPINE]", "Result": 10}
